system: UniProtKB Q00987
assay text: MDM2 binding screen: displacement of fluorescent p53 peptide probe FP53 (fluorescence polarization)
conditions used: Acid 14; initial screen; crude macrocycle reactions
measurement label: fraction fluorescent probe displaced, Screen

- compound: "O=C1CCSSCCNC(=O)[C@H](Cc2c[nH]c3ccccc23)NC(=O)CCNC(=O)[C@H](CNC(=O)c2ccc(Cl)s2)N1"
  value measured: 0.17
- compound: "O=C1CCSSCCNC(=O)[C@@H]2C[C@H](NC(=O)c3ccc(Cl)s3)CN2C(=O)[C@H](Cc2c[nH]c3ccccc23)NC(=O)CCN1"
  value measured: 0.11
- compound: "O=C1CCSSCCNC(=O)C(Cc2ccccc2)NC(=O)C2CN(C(=O)c3ccc(Cl)s3)CCN2C(=O)c2cccc(c2)CN1 (mixture of isomers)"
  value measured: -0.00483

====

system: UniProt:Q00987
assay text: MDM2 binding screen of Libraries 3 and 4: displacement of fluorescent probe F-M8 at 750 nM macrocycle
conditions used: Panel b, Library 3: 63 scaffolds combinatorially acylated with 15 carboxylic acids at 30 picomole scale; displacement of fluorescent peptide probe; macrocycle 750 nM
measurement label: fraction of fluorescent probe displaced

- compound: "O=C(NC[C@H]1NC(=O)[C@@H]2CN(CCO2)C(=O)CCSSCCNC(=O)[C@H](Cc2ccc3ccccc3c2)NC1=O)c1ccc(Cl)cc1"
  measurement label: "fraction of fluorescent probe displaced"
  value measured: 0.00133
- compound: "Cn1cc(C[C@@H]2NC(=O)CN(CCNC(=O)c3ccc4ccccc4c3)C(=O)C3(CC3)CNC(=O)CCSSCCNC2=O)c2ccccc21"
  measurement label: "fraction of fluorescent probe displaced"
  value measured: -0.002
- compound: "CN1C(=O)C(CNC(=O)c2ccc3ccccc3c2)NC(=O)C2CN(CCO2)C(=O)CCSSCCNC(=O)C1Cc1c[nH]c2ccccc12 (stereo not drawn)"
  measurement label: "fraction of fluorescent probe displaced"
  value measured: 0.011

====

system: UniProt:Q00987
assay text: MDM2 binding screen: displacement of fluorescent p53 peptide probe FP53 (fluorescence polarization)
conditions used: Acid 91; initial screen; crude macrocycle reactions
Numbered stars: 1 amine (or outer) side, 2 acyl side, 3 side chain; on linkers, the order of the positions; unused ones are H or OH. Bridge positions count the residues as written; N and C are the ends. Square brackets hold non-standard residues; d marks the D form. Peptide text beside a SMILES is read from it. * marks the point of attachment. Pro(cis-4-NH-(E)-Cinnamoyl) = O=C(/C=C/c1ccccc1)N[C@@H]1CN[C@H](C(=O)O)C1; Cysteamide = C(CS[*:3])N[*:1]; X1 = O=C(/C=C/c1ccccc1)*; Dap = NC[C@H](N)C(=O)O; Mpa = O=C(O)CCS
Please assign rule not met whenever fraction fluorescent probe displaced, Screen is at or above -0.05, and rule met whenever it is below.

- compound: "O=C(/C=C/c1ccccc1)NC[C@@H]1NC(=O)[C@@H]2CCCN2C(=O)[C@H](Cc2ccccc2)NC(=O)CCSSCCNC1=O [X F B1 D3 Acid 91] ([Mpa]FP[Dap](X1)-Cysteamide; disulfide 1-C)"
  discrete label: "rule not met"
- compound: "O=C1CCSSCCNC(=O)C2(CCN(C(=O)/C=C/c3ccccc3)CC2)NC(=O)c2cccc(c2)CNC(=O)[C@H](Cc2ccccc2)N1"
  discrete label: "rule met"
- compound: "O=C1NC2(CCN(C(=O)/C=C/c3ccccc3)CC2)C(=O)N[C@@H](Cc2c[nH]c3ccccc23)C(=O)NCCSSCCC(=O)N2CCC[C@H]1C2"
  discrete label: "rule not met"
- compound: "O=C(/C=C/c1ccccc1)NC[C@@H]1NC(=O)CCNC(=O)[C@H](Cc2ccccc2)NC(=O)CCSSCCNC1=O"
  discrete label: "rule not met"
- compound: "O=C1CCSSCCNC(=O)C2CCCN2C(=O)C2CN(C(=O)C=Cc3ccccc3)CCN2C(=O)C(Cc2c[nH]c3ccccc23)N1 (mixture of isomers)"
  discrete label: "rule met"
- compound: "O=C(/C=C/c1ccccc1)NC[C@@H]1NC(=O)[C@H](Cc2c[nH]c3ccccc23)NC(=O)CCSSCCNC(=O)[C@H]2CCCN(C2)C1=O"
  discrete label: "rule not met"
- compound: "O=C(C=Cc1ccccc1)NC1CC2C(=O)NCCSSCCC(=O)NCc3cccc(c3)C(=O)NC(Cc3c[nH]c4ccccc34)C(=O)N2C1 (centres unmarked)"
  discrete label: "rule not met"
- compound: "O=C(C=Cc1ccccc1)NCC1NC(=O)CCSSCCNC(=O)C(Cc2c[nH]c3ccccc23)NC(=O)C2CCCN(C2)C1=O (centres unmarked)"
  discrete label: "rule not met"
- compound: "O=C(/C=C/c1ccccc1)N[C@H]1C[C@H]2C(=O)N[C@@H](Cc3c[nH]c4ccccc34)C(=O)NCCSSCCC(=O)N3CCC[C@H]3C(=O)N2C1 [X B1 D5 W Acid 91] ([Mpa]P[Pro(cis-4-NH-(E)-Cinnamoyl)]W-Cysteamide; disulfide 1-C)"
  discrete label: "rule not met"

====

system: thrombin (Homo sapiens, UniProt P00734)
Construct: consists of two polypeptide chains of 36 (light chain) and 259 amino acid
assay text: Thrombin inhibition screen of crude macrocycle reactions (residual thrombin activity, fluorogenic substrate Z-Gly-Gly-Arg-AMC)
Format: biochemical
conditions used: 10 µM macrocycle concentration; crude reactions, Library 1a-l; scaffold AA1-AA2-AA3 combined with 1-16 or '-'
Method: As a proof-of-concept, we screened the macrocycle library for inhibitors against thrombin, which is the central blood coagulation protease and an important therapeutic target. We conducted the screen for thrombin-inhibiting macrocycles in 384-well reaction plates. Briefly, each well contained a unique macrocycle (10 μM), 5 μL of thrombin (2 nM final conc.), and subsequently, 5 µL of a fluorogenic substrate to measure the residual thrombin activity and the extent of protease inhibition. […]
Numbered stars: 1 amine (or outer) side, 2 acyl side, 3 side chain; on linkers, the order of the positions; unused ones are H or OH. Bridge positions count the residues as written; N and C are the ends. Square brackets hold non-standard residues; d marks the D form. Peptide text beside a SMILES is read from it. * marks the point of attachment. 1,2,3Thiadiazole5CO(4-Me) = Cc1nnsc1C(=O)*; Nicotinoyl(6-OMe) = COc1ccc(C(=O)*)cn1; Cysteamide = C(CS[*:3])N[*:1]; Orn = NCCC[C@H](N)C(=O)O; Bz = O=C(c1ccccc1)*; βAla = NCCC(=O)O; Mpa = O=C(O)CCS
percent residual thrombin activity values by entry
measurement label: percent residual thrombin activity

- molecule: "Cc1nnsc1C(=O)NCCCC[C@@H]1NC(=O)[C@H](C(C)C)NC(=O)CCSSCCNC(=O)[C@@H]2CCCN2C1=O [v-D1-B1/15] ([Mpa]VK(1,2,3Thiadiazole5CO(4-Me))P-Cysteamide; disulfide 1-C)"
  value measured: "105.611%"
- molecule: "CC(C)[C@H]1NC(=O)c2cccc(c2)CNC(=O)[C@H](CCCNC(=O)c2ccc(Cl)s2)NC(=O)CCSSCCNC1=O [D2-B5-v/14]"
  value measured: "98.5757%"
- molecule: "CC(C)[C@H]1NC(=O)c2cccc(c2)CNC(=O)[C@H](CCCNC(=O)c2ccco2)NC(=O)CCSSCCNC1=O [D2-B5-v/16]"
  value measured: "103.718%"
- molecule: "COc1ccc(C(=O)NCCCC[C@@H]2NC(=O)[C@H](C(C)C)NC(=O)CCSSCCNC(=O)[C@@H]3CCCN3C2=O)cn1 [V-D1-B1/10] ([Mpa]VK(Nicotinoyl(6-OMe))P-Cysteamide; disulfide 1-C)"
  value measured: "107.385%"
- molecule: "CC[C@H](C)[C@@H]1NC(=O)[C@H](CCCNC(=O)COc2ccccc2)NC(=O)c2cccc(c2)CNC(=O)CCSSCCNC1=O [B5-D2-I/13]"
  value measured: "106.564%"
- molecule: "CC[C@H](C)[C@@H]1NC(=O)[C@H](CCCNC(=O)c2ccccc2)NC(=O)CCSSCCNC(=O)CCNC1=O [D2-I-B2/1] ([Mpa][Orn](Bz)I[βAla]-Cysteamide; disulfide 1-C)"
  value measured: "109.798%"

====

Recorded fraction fluorescent probe displaced, Replicate by entry
system: MDM2 (Homo sapiens)
Sequence (Q00987 whole entry): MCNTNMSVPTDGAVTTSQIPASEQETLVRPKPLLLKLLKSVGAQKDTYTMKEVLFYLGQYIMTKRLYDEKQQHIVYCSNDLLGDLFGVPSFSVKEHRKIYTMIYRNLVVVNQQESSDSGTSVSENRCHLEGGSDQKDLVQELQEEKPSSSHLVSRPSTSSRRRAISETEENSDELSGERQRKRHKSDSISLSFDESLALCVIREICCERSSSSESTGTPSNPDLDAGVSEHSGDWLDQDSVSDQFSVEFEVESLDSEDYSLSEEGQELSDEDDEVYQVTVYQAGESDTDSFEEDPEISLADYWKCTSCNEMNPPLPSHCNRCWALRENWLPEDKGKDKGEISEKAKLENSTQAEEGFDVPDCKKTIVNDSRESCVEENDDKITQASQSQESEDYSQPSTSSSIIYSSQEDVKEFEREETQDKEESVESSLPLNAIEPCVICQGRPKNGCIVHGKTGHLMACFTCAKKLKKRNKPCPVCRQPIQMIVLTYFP
assay text: MDM2 binding screen: displacement of fluorescent p53 peptide probe FP53 (fluorescence polarization)
conditions used: Acid 91; replicate; crude macrocycle reactions
Numbered stars: 1 amine (or outer) side, 2 acyl side, 3 side chain; on linkers, the order of the positions; unused ones are H or OH. Bridge positions count the residues as written; N and C are the ends. Square brackets hold non-standard residues; d marks the D form. Peptide text beside a SMILES is read from it. * marks the point of attachment. Pro(cis-4-NH-(E)-Cinnamoyl) = O=C(/C=C/c1ccccc1)N[C@@H]1CN[C@H](C(=O)O)C1; Cysteamide = C(CS[*:3])N[*:1]; X1 = O=C(/C=C/c1ccccc1)*; Api = NC1(C(=O)O)CCNCC1; Dap = NC[C@H](N)C(=O)O; Mpa = O=C(O)CCS
measurement label: fraction fluorescent probe displaced, Replicate

- compound: "O=C1CCSSCCNC(=O)C2(CCN(C(=O)/C=C/c3ccccc3)CC2)NC(=O)[C@@H]2CCCN2C(=O)[C@H](Cc2ccccc2)N1 [X F B1 D6 Acid 91] ([Mpa]FP[Api](X1)-Cysteamide; disulfide 1-C)"
  value measured: 0.0168
- compound: "O=C1CCSSCCNC(=O)c2cccc(c2)CNC(=O)C2(CCN(C(=O)/C=C/c3ccccc3)CC2)NC(=O)[C@H](Cc2ccccc2)N1"
  value measured: -0.0333
- compound: "O=C1CCSSCCNC(=O)[C@H](Cc2c[nH]c3ccccc23)NC(=O)C2(CCN(C(=O)/C=C/c3ccccc3)CC2)NC(=O)CCN1"
  value measured: 0.07
- compound: "O=C(/C=C/c1ccccc1)NC[C@@H]1NC(=O)[C@H](Cc2ccccc2)NC(=O)c2cccc(c2)CNC(=O)CCSSCCNC1=O"
  value measured: -0.00827
- compound: "O=C(/C=C/c1ccccc1)NC[C@@H]1NC(=O)CCSSCCNC(=O)[C@H](Cc2ccccc2)NC(=O)c2cccc(c2)CNC1=O"
  value measured: -0.0333
- compound: "O=C1CCSSCCNC(=O)[C@@H]2CCCN2C(=O)C2(CCN(C(=O)/C=C/c3ccccc3)CC2)NC(=O)[C@H](Cc2c[nH]c3ccccc23)N1 [X W D6 B1 Acid 91] ([Mpa]W[Api](X1)P-Cysteamide; disulfide 1-C)"
  value measured: 0.0168
- compound: "O=C(/C=C/c1ccccc1)N[C@H]1C[C@H]2C(=O)N[C@@H](Cc3ccccc3)C(=O)NCc3cccc(c3)C(=O)NCCSSCCC(=O)N2C1"
  value measured: -0.00827
- compound: "O=C(C=Cc1ccccc1)NC1CC2C(=O)NCCSSCCC(=O)NC(Cc3c[nH]c4ccccc34)C(=O)N3CCCC(C3)C(=O)N2C1 (stereo not shown)"
  value measured: 0.22
- compound: "O=C1NC(Cc2ccccc2)C(=O)N2CCN(C(=O)C=Cc3ccccc3)CC2C(=O)NCCSSCCC(=O)N2CCCC1C2 (stereo not shown)"
  value measured: -0.00827
- compound: "O=C(/C=C/c1ccccc1)NC[C@@H]1NC(=O)CCNC(=O)[C@H](Cc2c[nH]c3ccccc23)NC(=O)CCSSCCNC1=O"
  value measured: 0.09
- compound: "O=C(C=Cc1ccccc1)NC1CC2C(=O)NCCSSCCC(=O)NCc3cccc(c3)C(=O)NC(Cc3c[nH]c4ccccc34)C(=O)N2C1 (stereo not shown)"
  value measured: 0.12
- compound: "O=C(C=Cc1ccccc1)NC1CC2C(=O)NCCSSCCC(=O)NC(Cc3c[nH]c4ccccc34)C(=O)NCc3cccc(c3)C(=O)N2C1 (stereo not shown)"
  value measured: 0.17
- compound: "O=C(/C=C/c1ccccc1)N[C@H]1C[C@H]2C(=O)N[C@@H](Cc3c[nH]c4ccccc34)C(=O)NCCSSCCC(=O)N3CCC[C@H]3C(=O)N2C1 [X B1 D5 W Acid 91] ([Mpa]P[Pro(cis-4-NH-(E)-Cinnamoyl)]W-Cysteamide; disulfide 1-C)"
  value measured: 0.04
- compound: "O=C(C=Cc1ccccc1)NCC1NC(=O)c2cccc(c2)CNC(=O)CCSSCCNC(=O)C(Cc2c[nH]c3ccccc23)NC1=O (stereo not shown)"
  value measured: 0.29
- compound: "O=C(C=Cc1ccccc1)NCC1NC(=O)C(Cc2ccccc2)NC(=O)C2CCCN(C2)C(=O)CCSSCCNC1=O (stereo not shown)"
  value measured: -0.00827
- compound: "O=C(/C=C/c1ccccc1)N[C@H]1C[C@H]2C(=O)N[C@@H](Cc3c[nH]c4ccccc34)C(=O)NCc3cccc(c3)C(=O)NCCSSCCC(=O)N2C1"
  value measured: 0.0168
- compound: "O=C(/C=C/c1ccccc1)NC[C@@H]1NC(=O)CCSSCCNC(=O)[C@H](Cc2ccccc2)NC(=O)[C@@H]2CCCN2C1=O [X D3 B1 F Acid 91] ([Mpa][Dap](X1)PF-Cysteamide; disulfide 1-C)"
  value measured: -0.00827
- compound: "O=C(/C=C/c1ccccc1)NC[C@@H]1NC(=O)[C@H](Cc2ccccc2)NC(=O)CCSSCCNC(=O)[C@H]2CCCN(C2)C1=O"
  value measured: -0.0333
- compound: "O=C(/C=C/c1ccccc1)NC[C@@H]1NC(=O)CCSSCCNC(=O)CCNC(=O)[C@H](Cc2c[nH]c3ccccc23)NC1=O"
  value measured: 0.0168
- compound: "O=C(/C=C/c1ccccc1)NC[C@@H]1NC(=O)[C@H](Cc2c[nH]c3ccccc23)NC(=O)CCSSCCNC(=O)[C@H]2CCCN(C2)C1=O"
  value measured: 0.07
- compound: "O=C1CCSSCCNC(=O)[C@H]2CCCN(C2)C(=O)[C@H](Cc2c[nH]c3ccccc23)NC(=O)C2(CCN(C(=O)/C=C/c3ccccc3)CC2)N1"
  value measured: 0.07
- compound: "O=C(C=Cc1ccccc1)NC1CC2C(=O)NCCSSCCC(=O)N3CCCC(C3)C(=O)NC(Cc3ccccc3)C(=O)N2C1 (stereo not shown)"
  value measured: -0.0333
